Source: patent US20260008775A1

# TGT: human emopamil binding protein and human 7-dehydrocholesterol reductase (hEBP-DHCR7) (Homo sapiens (Human), UniProt Q15125)
# Sequence (Q15125 whole entry): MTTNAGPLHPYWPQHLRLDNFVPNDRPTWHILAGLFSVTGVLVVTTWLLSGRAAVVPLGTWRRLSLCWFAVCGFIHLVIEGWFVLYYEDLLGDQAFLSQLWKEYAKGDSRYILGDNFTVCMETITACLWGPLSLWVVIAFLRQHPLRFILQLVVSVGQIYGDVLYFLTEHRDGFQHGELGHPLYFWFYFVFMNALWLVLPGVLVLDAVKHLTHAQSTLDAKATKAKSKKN
pKi: −log10 of the molar value.
MEASURED PROPERTY: pKi

Below are worked cases with known answers.
MOLECULE	pKi
CC[C@@H]1CN([C@@H]2CC[C@H](c3nc(-c4cnc(C(F)(F)F)c(F)c4)nn3C(C)C)C2)CCO1 [Compound 146]	7.95
CC[C@@H]1CN([C@@H]2CC[C@H](c3nc(-c4cncc(Cl)c4)nn3C(C)C)C2)CCO1 [Compound 129]	7.63

A = CC(C)n1nc(-c2cncc(C(F)(F)F)c2)cc1[C@H]1[C@@H]2C[C@@H](N3C[C@@H]4C[C@H]3CO4)C[C@@H]21 (single isomer, unassigned) [36*]
B = CC(C)n1nc(-c2cnc(F)c(C(F)(F)F)c2)nc1[C@H]1CC[C@H](N2CCOCC2)C1 (single isomer, unassigned) [Compound 159*]
Query :: Identify the item whose pKi is the smaller number: A or B Output the label that corresponds to your choice.
Result :: A

----------
# TGT: human emopamil binding protein and human 7-dehydrocholesterol reductase (hEBP-DHCR7) (Homo sapiens (Human))
MEASURED PROPERTY: Ki (nM)

Below are worked cases with known answers.
COMPOUND	Ki, nM
CC[C@@H]1CN([C@@H]2CC[C@H](c3nc(-c4cnc(C(F)(F)F)nc4)nn3C(C)C)C2)CCO1 (single isomer, unassigned)	164
CC(C)n1nc(-c2cccc(C(F)(F)F)n2)cc1[C@H]1[C@@H]2C[C@@H](N3CCCOCC3)C[C@@H]21	53
CC(C)n1nc(-c2cccc(C(F)(F)F)n2)cc1[C@H]1[C@@H]2C[C@H](N3CCOCC3)C[C@@H]21	34.5
CC(C)n1nc(-c2cnc(C(F)(F)F)nc2)cc1[C@H]1[C@@H]2C[C@H](N3CCOCC3)C[C@@H]21	27.5

P = CC(C)n1nc(-c2cccc(C(F)(F)F)n2)cc1[C@H]1[C@@H]2C[C@H](N3CCCOCC3)C[C@@H]21
Q = CC(C)n1nc(-c2ccc(C(F)(F)F)nc2)nc1[C@H]1CC[C@H](N2CCO[C@H](CF)C2)C1 (single isomer, unassigned)
Query :: Of the two listed items, P and Q , which carries the larger Ki figure? Output the label that corresponds to your choice.
Result :: Q
(Q: 388 nM, P: 21 nM)

----------
# Test system: zymostenol accumulation (EBP) in EpiSC-derived OPCs
# PROTOCOL TEXT: GC/MS-based sterol profiling, zymostenol accumulation in EpiSC-derived OPCs
# Type: cell-based, mouse
# RECORDED CONDITIONS: Mus musculus, 24 h, EpiSC-derived OPCs, 24 hr, 8 doses from 0.15 nM to 333 nM; read-out: Mouse Zymostenol GCMS EC50
# Experimental: To assess effects of treatments on OPCs, all treatments were assayed in two or more independent platings of epiblast stem cell-derived OPCs (EpiSC). […] Sterols were monitored using a modified Folch wash protocol (Hubler et al, 2018, Nature). […] After derivatization, 2 μl were analyzed by gas chromatography/mass spectrometry using an Agilent 5973 Network Mass Selective Detector equipped with a 6890 gas chromatograph system and a HP-5MS capillary column (30 m×0.25 mm×0.25 mm). […]
MEASURED PROPERTY: EC50 (nM)

COMPOUND	TGT	ENDPOINT UNIT	EC50
CC(C)n1nc(-c2cnc(F)c(C(F)(F)F)c2)nc1[C@@H]1CC[C@H](N2CCOCC2)C1 (single isomer, unassigned)	zymostenol accumulation (EBP) in EpiSC-derived OPCs	nM	59.2
CCn1nc(-c2ccc(C(F)(F)F)nc2)nc1[C@H]1CC[C@H](N2CCCOCC2)CC1	zymostenol accumulation (EBP) in EpiSC-derived OPCs	nM	44.8

P = CC(C)n1nc(-c2cnc(C(F)(F)F)nc2)cc1[C@H]1CC[C@@H](N2CCO[C@H](CF)C2)C1 (single isomer, unassigned)
Q = CC(C)n1nc(-c2ccc(C(F)(F)F)c(F)c2)nc1[C@H]1CC[C@@H](N2CCOCC2)C1 (single isomer, unassigned)
Query :: Of the two listed items, P and Q , which carries the larger EC50 figure? Output the label that corresponds to your choice.
Result :: P

A = CC(C)n1nc(-c2ccc(C(F)(F)F)cc2)cc1[C@H]1[C@@H]2C[C@@H](N3CCCOCC3)C[C@@H]21
B = CC(C)n1nc(-c2cncc(C(F)(F)F)c2)nc1[C@H]1[C@@H]2C[C@@H](N3CCCOCC3)C[C@@H]21
Query :: Of the two listed items, A and B , which carries the larger EC50 figure? Output the label that corresponds to your choice.
Result :: A

1 = CC(C)n1nc(-c2cncc(C(F)(F)F)c2)cc1[C@@H]1CC[C@H](N2CCOCC2)C1 (single isomer, unassigned)
2 = CC[C@@H]1CN([C@@H]2CC[C@H](c3nc(-c4ccc(C(F)F)nc4)nn3C(C)C)C2)CCO1
3 = CC(C)n1nc(-c2ccnc(C(F)(F)F)n2)cc1[C@H]1[C@@H]2C[C@H](N3CCOC[C@H]3C)C[C@@H]21
4 = CC(C)n1nc(-c2ccc(C(F)(F)F)c(F)c2)nc1[C@H]1CC[C@@H](N2CCO[C@H](CF)C2)C1
Query :: # desc sort on EC50 across 4 compounds As an answer, provide the labels arranged in the order called for.
Result :: 1, 3, 2, 4
(1: 21.9 nM, 3: 9.34 nM, 2: 4.07 nM, 4: 1.03 nM)

P = CC(C)n1nc(-c2ccc(C(F)(F)F)nc2)cc1[C@H]1CC[C@@H](N2CCN(CCO)CC2)C1 (single isomer, unassigned)
Q = CC(C)n1nc(-c2ccc(F)cc2)cc1[C@H]1[C@@H]2C[C@H](N3CCCOCC3)C[C@@H]21
Query :: Identify the item whose EC50 is the smaller number: P or Q Output the label that corresponds to your choice.
Result :: Q
(Q: 8.6 nM, P: 21.9 nM)

----------
# System: zymostenol accumulation (EBP) in EpiSC-derived OPCs
# PROTOCOL TEXT: GC/MS-based sterol profiling, zymostenol accumulation in EpiSC-derived OPCs
# Format: cell-based, mouse
# RECORDED CONDITIONS: Mus musculus, 24 h, EpiSC-derived OPCs, 24 hr, 8 doses from 0.15 nM to 333 nM; read-out: Mouse Zymostenol GCMS EC50
# Method: To assess effects of treatments on OPCs, all treatments were assayed in two or more independent platings of epiblast stem cell-derived OPCs (EpiSC). […] Sterols were monitored using a modified Folch wash protocol (Hubler et al, 2018, Nature). […] After derivatization, 2 μl were analyzed by gas chromatography/mass spectrometry using an Agilent 5973 Network Mass Selective Detector equipped with a 6890 gas chromatograph system and a HP-5MS capillary column (30 m×0.25 mm×0.25 mm). […]
pEC50: −log10 of the molar value.
MEASURED PROPERTY: pEC50

COMPOUND	pEC50
CC(C)n1nc(-c2cccc(C(F)(F)F)n2)nc1[C@H]1CC[C@@H](N2CCOC[C@H]2C)CC1 (single isomer, unassigned) [81*]	7.56

I = CC(C)n1nc(-c2ccc(F)cc2)cc1[C@H]1[C@@H]2C[C@@H](N3CCCOCC3)C[C@@H]21 [Compound 184*]
II = CC(C)n1nc(-c2ccc(C(F)(F)F)nc2)nc1[C@@H]1CC[C@H](N2CCOCC2)C1 [Compound 105]
III = Cc1ccccc1-c1cc([C@H]2[C@@H]3C[C@H](N4CCCOCC4)C[C@@H]32)n(C(C)C)n1 (single isomer, unassigned) [Compound 197*]
IV = CC(C)n1nc(-c2cccc(C(F)(F)F)c2)nc1[C@H]1[C@@H]2C[C@@H](N3CCOCC3)C[C@@H]21 [20*]
Query :: Sort low-to-high on pEC50, please. As an answer, provide the labels arranged in the order called for.
Result :: IV, I, III, II
(IV: 7.19, I: 7.57, III: 8.26, II: 8.50)

----------
# Tested on: zymostenol accumulation (EBP) in EpiSC-derived OPCs
# PROTOCOL TEXT: GC/MS-based sterol profiling, zymostenol accumulation in EpiSC-derived OPCs
# Assay type: cell-based, mouse
# RECORDED CONDITIONS: Mus musculus, 24 h, EpiSC-derived OPCs, 24 hr, 8 doses from 0.15 nM to 333 nM; read-out: Mouse Zymostenol GCMS EC50
MEASURED PROPERTY: EC50 (nM)

COMPOUND	OBSERVED MEASUREMENT
CC(C)n1nc(-c2cncc(C(F)(F)F)c2)cc1[C@H]1CC[C@H](N2CCOCC2)CC1	17

1 = CC(C)n1nc(-c2cncc(C(F)(F)F)c2)cc1[C@H]1[C@@H]2C[C@H](N3C[C@@H]4C[C@H]3CO4)C[C@@H]21 (single isomer, unassigned)
2 = CC(C)n1nc(-c2cncc(C(F)(F)F)c2)nc1[C@@H]1CC[C@H](N2CCOCC2)C1 (single isomer, unassigned)
3 = CC(C)n1nc(-c2cnc(C(F)(F)F)nc2)nc1[C@H]1CC[C@H](N2CCOCC2)C1
4 = CC(C)n1nc(-c2cnc(N)c(C(F)(F)F)c2)cc1[C@H]1[C@@H]2C[C@@H](N3CCOCC3)C[C@@H]21 [Compound A, reference compound]
5 = CC(C)n1nc(-c2cncc(C(F)(F)F)c2)cc1[C@H]1[C@@H]2C[C@H](N3CCO[C@@H](C)C3)C[C@@H]21 (single isomer, unassigned)
Query :: Sort low-to-high on EC50, please. As an answer, provide the labels arranged in the order called for.
Result :: 5, 1, 2, 3, 4
